B1: library; a variant is named by its letters at N, in order (parent)
chain: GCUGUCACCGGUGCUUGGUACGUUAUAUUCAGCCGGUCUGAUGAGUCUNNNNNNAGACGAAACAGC

- Variants of: B1
- experimentSummary: FACS-Seq fitted mean relative fluorescence mCherry/BFP without ligand (log10 relative fluorescence); HEK293T overexpressing SLC46A1; higher = higher reporter protein expression
- recordedConditions: without (6R,S)-folinic acid; ligand present: no
We'd kindly ask you to apply these FACS-Seq fitted mean (log10) classes: bottom (below 0.2), middle (0.2 to below 0.3), top (0.3 or more)

*Q* Which category does the recorded FACS-Seq fitted mean (log10) put `GAAGCU` in?
*A* bottom

*Q* Which class holds `AAAAAC` ?
*A* bottom

*Q* Lab note: which band did `GAAGAA` land in?
*A* bottom

*Q* Could you place `ACGGUU` in its proper category? Many thanks.
*A* top

*Q* Input `AAGGGA` ; output its category
*A* bottom

*Q* Category lookup for the variant `GUUUUA`
*A* top

*Q* Which class is correct for the following variant? `UUACCC`
*A* top

*Q* Where would `GAAGAG` land among the classes by reported FACS-Seq fitted mean (log10)?
*A* bottom

*Q* Sort into band: `UCAUUG`
*A* bottom

*Q* Lab note: which band did `GACUUG` land in?
*A* top

*Q* Which category fits this record: `AUUUAU`
*A* middle

*Q* Please let me know in which category the item `AUUAUU` belongs.
*A* bottom

*Q* Categorize the following entry: `AUAAUA`
*A* top

*Q* Using the reported FACS-Seq fitted mean (log10), which band applies to `UAGAAA` ?
*A* top

*Q* Could you tell me which band `GUUGAC` belongs to?
*A* middle

*Q* Please indicate the class for `GUCUUG` based on its FACS-Seq fitted mean (log10).
*A* bottom

*Q* Hi, small favor: classify `GAUACA` by its FACS-Seq fitted mean (log10) when you get a moment.
*A* middle

*Q* Categorize the following entry: `GGUAGU`
*A* top

*Q* Kindly identify the class of `CAUAUU` .
*A* top

*Q* Tag the class for `GGAAAG`
*A* middle

*Q* Please indicate the class for `AAUCCA` based on its FACS-Seq fitted mean (log10).
*A* top

*Q* Band for the recorded FACS-Seq fitted mean (log10) of `UGGUUG` ?
*A* middle
